biological target: HLA-A*29:02/hb2m/VFAQVKQJY (peptide-loaded) (human); test: SPR, TAPBPR-biotin on streptavidin chip, peptide-loaded HLA as analyte
assayReadout: Kd (nM)

* chicken TAPBPR luminal domain (chTAPBPR) | 170

###

molecular target: HLA-A*24:02/hb2m/VYGJVRACL (peptide-loaded) (human); assay: SPR; HLA-A*24:02/[..], 0.1 to 10 µM, over chicken TAPBPR-biotin on a streptavidin chip; kinetic fit
pKd: −log10 of the molar value.
assayReadout: pKd

- chicken TAPBPR luminal domain (chTAPBPR): 6.43

###

biological target: HLA-A*24:02/hb2m/VYGJVRACL (peptide-loaded) (human); assay: SPR, TAPBPR-biotin on streptavidin chip, peptide-loaded HLA as analyte
assayReadout: Kd (µM)

* chicken TAPBPR luminal domain (chTAPBPR) | 17.4

###

target: MR1 C262S loaded with acetyl-6-formylpterin (Ac-6-FP); assay: SPR, TAPBPR-biotin on streptavidin chip, Ac-6-FP loaded MR1 C262S as analyte
substances and their reported Kd
assayReadout: Kd

* human TAPBPR luminal domain (hTAPBPR) (from UniProt Q9BX59 22-405) | 98.7 µM
* chicken TAPBPR luminal domain (chTAPBPR) | 19.2 µM

###

target: MR1 C262S loaded with acetyl-6-formylpterin (Ac-6-FP); assay: SPR; MR1 C262S/Ac-6-FP, 10 to 100 µM, over hTAPBPR^KRQ-biotin on a streptavidin chip; steady-state fit in the inset
pKd: −log10 of the molar value.
assayReadout: pKd

* hTAPBPR^KRQ (R105K, K211R, R270Q) (from UniProt Q9BX59 22-405) | 4.21

###

molecular target: peptide-deficient (empty) HLA-B*08:01/hb2m (human) (UniProt P01889); experiment: SPR, TAPBPR-biotin on streptavidin chip, UV-irradiated (empty) HLA as analyte
assayReadout: Kd (nM)

- chicken TAPBPR luminal domain (chTAPBPR): 1890

###

biological target: peptide-deficient (empty) HLA-B*37:01/hb2m (human); experiment: SPR, TAPBPR-biotin on streptavidin chip, UV-irradiated (empty) HLA as analyte
assayReadout: Kd

* chicken TAPBPR luminal domain (chTAPBPR) | 2.19 µM

###

target: peptide-deficient (empty) HLA-A*29:02/hb2m (human); test: SPR, TAPBPR-biotin on streptavidin chip, UV-irradiated (empty) HLA as analyte
pKd: −log10 of the molar value.
assayReadout: pKd

• chicken TAPBPR luminal domain (chTAPBPR) = 6.54

###

biological target: peptide-deficient (empty) HLA-G*01:01/hb2m (human); assay: SPR, TAPBPR-biotin on streptavidin chip, UV-irradiated (empty) HLA as analyte
pKd: −log10 of the molar value.
assayReadout: pKd

- chicken TAPBPR luminal domain (chTAPBPR): 4.95

###

biological target: peptide-deficient (empty) HLA-A*02:01/hb2m (human); test: SPR, TAPBPR-biotin on streptavidin chip, UV-irradiated (empty) HLA as analyte
assayReadout: Kd (nM)

* chicken TAPBPR luminal domain (chTAPBPR) | 2960

###

biological target: peptide-deficient (empty) HLA-A*30:01/hb2m (human); assay: SPR, TAPBPR-biotin on streptavidin chip, UV-irradiated (empty) HLA as analyte
pKd: −log10 of the molar value.
assayReadout: pKd

• chicken TAPBPR luminal domain (chTAPBPR) = 5.89

These data points were gathered from patent US20250179143A1.
